The measurements presented in this section are drawn from the supplement of paper PMC7877785.

Below, each of the sequences is paired with its reported self-splicing fitness (ln) value.
- assay details: self-splicing fitness, log relative to wild type (ln ratio); higher = more splicing; Tetrahymena group I intron in knt gene, E. coli kanamycin selection, DiMSum; sequences stand for … in CUCUCU…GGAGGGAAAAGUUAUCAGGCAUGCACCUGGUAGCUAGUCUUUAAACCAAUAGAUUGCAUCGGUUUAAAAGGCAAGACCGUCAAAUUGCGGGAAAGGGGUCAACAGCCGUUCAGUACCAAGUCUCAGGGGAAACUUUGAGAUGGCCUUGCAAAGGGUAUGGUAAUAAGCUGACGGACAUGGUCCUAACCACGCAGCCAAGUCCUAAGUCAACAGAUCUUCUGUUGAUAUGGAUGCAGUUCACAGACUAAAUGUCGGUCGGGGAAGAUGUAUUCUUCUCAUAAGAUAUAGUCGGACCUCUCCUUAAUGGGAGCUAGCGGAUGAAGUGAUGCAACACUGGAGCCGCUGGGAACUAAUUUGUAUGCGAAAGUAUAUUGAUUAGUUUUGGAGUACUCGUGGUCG;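 also: selection with 25 µg/mL kanamycin versus none on LB agar overnight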
- settings: 37 °C
measurement type: self-splicing fitness (ln)

| sequence input | measurement type | meas value |
| --- | --- | --- |
| UGCAAGCAAUAUUACGCCUU | self-splicing fitness (ln) | -0.449 |
| AUAUAGCAAUAUUACGACAG | self-splicing fitness (ln) | -1.51 |
| UGUAAGCAAUAUUACGGCUC | self-splicing fitness (ln) | -1.32 |
| UAGCAGCAAUAUUACGCCUA | self-splicing fitness (ln) | 0.446 |
| UCGCAGCAAUAUUACGGUGA | self-splicing fitness (ln) | -2.45 |
| GCCCAGCAAUAUUACGUACU | self-splicing fitness (ln) | -0.765 |
| UAGGAGCAAUAUUACGGCCA | self-splicing fitness (ln) | -1.7 |
| AGUAAGCAAUAUUACGAGGA | self-splicing fitness (ln) | -2.55 |
| AAGCAGCAAUAUUACGGGGG | self-splicing fitness (ln) | -1.92 |
| CUAAAGCAAUAUUACGUUUA | self-splicing fitness (ln) | -2.81 |
| UCUUAGCAAUAUUACGACAC | self-splicing fitness (ln) | -1.65 |
| ACUUAGCAAUAUUACGGUAG | self-splicing fitness (ln) | -1.83 |
| UACCAGCAAUAUUACGGUCC | self-splicing fitness (ln) | -0.0163 |
| CUUCAGCAAUAUUACGUCAG | self-splicing fitness (ln) | -0.0836 |
| GUCAAGCAAUAUUACGAAAG | self-splicing fitness (ln) | -1.39 |
| AAGAAGCAAUAUUACGCGCC | self-splicing fitness (ln) | -0.664 |
| CACCAGCAAUAUUACGUUUA | self-splicing fitness (ln) | -2.47 |
| GCACAGCAAUAUUACGGUAC | self-splicing fitness (ln) | -0.285 |
| GAAGAGCAAUAUUACGCGAC | self-splicing fitness (ln) | -1.18 |
| CGUUAGCAAUAUUACGCAGC | self-splicing fitness (ln) | -3.07 |
| UUUCAGCAAUAUUACGUACA | self-splicing fitness (ln) | -0.465 |
| UUUUAGCAAUAUUACGAUCA | self-splicing fitness (ln) | -0.391 |
| GUCCAGCAAUAUUACGUUUC | self-splicing fitness (ln) | -0.05 |
| CUCAAGCAAUAUUACGCCCC | self-splicing fitness (ln) | -1.28 |
| UAAAAGCAAUAUUACGCAUC | self-splicing fitness (ln) | -2.36 |
| GAACAGCAAUAUUACGCGGU | self-splicing fitness (ln) | -2.82 |
| GUUCAGCAAUAUUACGGGGA | self-splicing fitness (ln) | -2.56 |
| AUGCAGCAAUAUUACGAAAU | self-splicing fitness (ln) | -0.358 |
| GUCGAGCAAUAUUACGGAUC | self-splicing fitness (ln) | -0.586 |
| GGUUAGCAAUAUUACGCCGG | self-splicing fitness (ln) | -3.55 |
| UACUAGCAAUAUUACGUGCC | self-splicing fitness (ln) | -2.6 |
| UUCUAGCAAUAUUACGCAGA | self-splicing fitness (ln) | -1.1 |
| CAUAAGCAAUAUUACGCGGU | self-splicing fitness (ln) | -2.34 |
| UGGAAGCAAUAUUACGAGUA | self-splicing fitness (ln) | -1.13 |

###

- assay details: self-splicing fitness, log relative to wild type (ln ratio); higher = more splicing; Tetrahymena group I intron in knt gene, E. coli kanamycin selection, DiMSum; sequences stand for … in CUCUCU…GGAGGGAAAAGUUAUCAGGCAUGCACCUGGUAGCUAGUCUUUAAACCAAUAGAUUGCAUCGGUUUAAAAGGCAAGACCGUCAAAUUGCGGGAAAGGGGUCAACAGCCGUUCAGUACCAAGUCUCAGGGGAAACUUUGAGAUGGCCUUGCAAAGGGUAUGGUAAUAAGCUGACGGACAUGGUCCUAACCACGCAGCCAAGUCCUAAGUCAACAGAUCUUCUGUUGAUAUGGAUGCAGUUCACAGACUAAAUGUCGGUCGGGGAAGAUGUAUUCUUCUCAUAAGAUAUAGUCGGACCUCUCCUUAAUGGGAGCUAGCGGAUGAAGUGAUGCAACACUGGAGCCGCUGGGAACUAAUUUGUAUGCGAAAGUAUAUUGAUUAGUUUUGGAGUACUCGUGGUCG
- settings: 37 °C
Below, each of the sequences is paired with its reported self-splicing fitness (ln) value.

| sequence input | self-splicing fitness (ln) |
| --- | --- |
| GCGCAGCAAUAUUACGUUCU | 0.0134 |
| AUACAGCAAUAUUACGUCAC | -2.1 |
| CUACAGCAAUAUUACGGUGG | -2.71 |
| UUCGAGCAAUAUUACGAGGU | -1.52 |
| UUAAAGCAAUAUUACGUCUC | -1.4 |
| GUAUAGCAAUAUUACGUGCC | -2.54 |
| UGCUAGCAAUAUUACGGCCC | -0.878 |
| GCUAAGCAAUAUUACGACUC | 0.379 |

###

- assay details: self-splicing fitness, log relative to wild type (ln ratio); higher = more splicing; Tetrahymena group I intron in knt gene, E. coli kanamycin selection, DiMSum; sequences stand for … in CUCUCU…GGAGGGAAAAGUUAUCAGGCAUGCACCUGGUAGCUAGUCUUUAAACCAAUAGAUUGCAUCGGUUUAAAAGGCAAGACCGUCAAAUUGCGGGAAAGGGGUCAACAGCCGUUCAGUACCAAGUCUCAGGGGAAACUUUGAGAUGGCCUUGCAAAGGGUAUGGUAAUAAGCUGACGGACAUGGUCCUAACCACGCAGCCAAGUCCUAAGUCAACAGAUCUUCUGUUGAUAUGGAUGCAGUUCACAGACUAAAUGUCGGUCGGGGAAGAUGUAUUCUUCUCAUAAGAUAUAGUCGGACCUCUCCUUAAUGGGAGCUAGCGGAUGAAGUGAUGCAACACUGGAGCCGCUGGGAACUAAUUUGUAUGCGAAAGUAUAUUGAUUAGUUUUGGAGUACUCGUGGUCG
- settings: 37 °C

| sequence input | self-splicing fitness (ln) |
| --- | --- |
| AUAGAGCAAUAUUACGCUGU | 0.0295 |
| CCAUAGCAAUAUUACGCAUG | -0.732 |
| ACCGAGCAAUAUUACGAGAC | -2.84 |
| AAGGAGCAAUAUUACGAACG | -0.373 |
| AUAGAGCAAUAUUACGCUGG | -1.62 |
| ACAAAGCAAUAUUACGUUGC | -2.57 |
| CGCGAGCAAUAUUACGUAAU | -3.23 |
| GUGUAGCAAUAUUACGACAA | -0.365 |
| CCUCAGCAAUAUUACGUGGA | -3.02 |
| CGUGAGCAAUAUUACGUUGG | -1.45 |
| AUGAAGCAAUAUUACGUGAG | -0.0834 |
| ACGCAGCAAUAUUACGCAGC | -2.16 |
| GCUAAGCAAUAUUACGUUUU | -0.945 |
| UCAAAGCAAUAUUACGAUUG | -0.73 |
| CUUUAGCAAUAUUACGUAAG | -0.626 |
| UACUAGCAAUAUUACGCAAU | -1.63 |

###

- assay details: self-splicing fitness, log relative to wild type (ln ratio); higher = more splicing; Tetrahymena group I intron in knt gene, E. coli kanamycin selection, DiMSum; sequences stand for … in CUCUCU…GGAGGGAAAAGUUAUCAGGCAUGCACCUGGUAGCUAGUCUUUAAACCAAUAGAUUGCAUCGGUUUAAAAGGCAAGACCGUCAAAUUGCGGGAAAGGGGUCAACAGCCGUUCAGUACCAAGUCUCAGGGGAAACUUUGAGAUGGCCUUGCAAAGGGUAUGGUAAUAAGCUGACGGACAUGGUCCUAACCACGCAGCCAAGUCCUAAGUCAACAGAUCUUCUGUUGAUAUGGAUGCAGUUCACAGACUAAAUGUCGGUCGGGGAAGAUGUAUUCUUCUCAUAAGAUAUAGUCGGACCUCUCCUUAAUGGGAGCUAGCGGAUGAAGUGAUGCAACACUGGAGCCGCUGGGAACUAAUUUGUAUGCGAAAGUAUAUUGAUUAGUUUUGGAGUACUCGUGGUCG
- settings: 37 °C
Assign class by self-splicing fitness (ln): not lower than -2 means YES; lower than -2 means NO.

| sequence input | qualitative label |
| --- | --- |
| GCUUAGCAAUAUUACGUAUC | YES |
| CACCAGCAAUAUUACGACCA | YES |
| GAGCAGCAAUAUUACGGAUC | YES |
| CCCAAGCAAUAUUACGUCUC | NO |
| CUAGAGCAAUAUUACGAGAG | YES |
| GGCAAGCAAUAUUACGGCCG | YES |
| AAGUAGCAAUAUUACGUGGA | NO |
| UUCUAGCAAUAUUACGGUUU | YES |
| CGGGAGCAAUAUUACGUUCU | YES |
| UAAUAGCAAUAUUACGAUUU | YES |
| GGCCAGCAAUAUUACGCACG | YES |
| UAAUAGCAAUAUUACGCGAC | YES |
| UCGAAGCAAUAUUACGACCU | YES |
| AUUCAGCAAUAUUACGAGAC | YES |
| GAAUAGCAAUAUUACGGUGA | YES |
| CCGCAGCAAUAUUACGAAGA | NO |
| UGUAAGCAAUAUUACGCGUG | YES |
| AUGUAGCAAUAUUACGGAGC | NO |
| CUCAAGCAAUAUUACGGGAG | YES |
| GCCUAGCAAUAUUACGAAGU | YES |
| AAGUAGCAAUAUUACGACAC | YES |
| GGAAAGCAAUAUUACGCAGC | YES |
| AGAUAGCAAUAUUACGAGGA | NO |
| AAAAAGCAAUAUUACGCUUA | YES |
| UUUCAGCAAUAUUACGGCGC | YES |
| CCCGAGCAAUAUUACGGCCA | NO |
| CAUCAGCAAUAUUACGAUCG | YES |
| GUUCAGCAAUAUUACGUUAC | YES |
| CCCGAGCAAUAUUACGUCAG | NO |
| GUUUAGCAAUAUUACGUAAG | YES |
| CACGAGCAAUAUUACGCAAC | NO |
| AAAGAGCAAUAUUACGGACA | YES |
| GACGAGCAAUAUUACGGCAU | YES |
| UUGAAGCAAUAUUACGAAGG | YES |
| GUGCAGCAAUAUUACGGGCA | YES |
| GAGCAGCAAUAUUACGUAUU | YES |
| AAGAAGCAAUAUUACGAAUA | YES |
| CAUAAGCAAUAUUACGGCGC | NO |
| CCCUAGCAAUAUUACGCGCG | NO |
| AUACAGCAAUAUUACGUACC | YES |
| AGUUAGCAAUAUUACGGCAC | YES |
| CCGAAGCAAUAUUACGCCUG | YES |
| UCGAAGCAAUAUUACGAUAG | YES |
| UUGAAGCAAUAUUACGGCGU | YES |
| CGCUAGCAAUAUUACGCAAC | YES |
| GCGUAGCAAUAUUACGUUAU | YES |
| GGCAAGCAAUAUUACGCCCA | YES |
| CUAAAGCAAUAUUACGGCGC | NO |
| CGUAAGCAAUAUUACGCAUU | NO |
| UUUAAGCAAUAUUACGAGGG | YES |
| GCCUAGCAAUAUUACGAGUU | YES |
| AUGGAGCAAUAUUACGUCUC | YES |
| CAACAGCAAUAUUACGAAAU | NO |
| UCAUAGCAAUAUUACGUAUU | NO |
| GCCAAGCAAUAUUACGGAAU | YES |
| GGGUAGCAAUAUUACGCUUG | YES |
| AACGAGCAAUAUUACGCCAA | NO |
| AUUAAGCAAUAUUACGAUGU | YES |
| UGGCAGCAAUAUUACGUGGC | NO |
| GAGAAGCAAUAUUACGCCCA | YES |
| UGACAGCAAUAUUACGGUCC | YES |
| AUCUAGCAAUAUUACGUUAA | YES |
| GCCUAGCAAUAUUACGUUAC | YES |
| AGGUAGCAAUAUUACGCAAC | NO |
| GGUUAGCAAUAUUACGGUUU | YES |
